test system: PBMC from normal individuals; assay: In vitro T cell proliferative responses of human PBMC ([3H]thymidine incorporation); type: cell-based; details: 2nd Stimulation, donor X460
measuredEndpoint: X460 (Δmax cpm)

Would you please look over these solved cases?
molecule	X460 (Δmax cpm)
CC(C)C[C@H](NC(=O)[C@@H](NC(=O)[C@H](C)NC(=O)[C@H](C)NC(=O)[C@H](C)NC(=O)[C@@H](NC(=O)[C@H](CC1CCCCC1)NC(=O)[C@H](CCCCN)NC(=O)[C@@H](C)N)C(C)C)[C@@H](C)O)C(=O)N[C@@H](CCCCN)C(=O)N[C@@H](C)C(=O)N[C@@H](C)C(=O)N[C@H](C)C(N)=O [965.16]	0 cpm
CC(C)C[C@H](NC(=O)[C@@H](NC(=O)[C@H](Cc1ccc(O)cc1)NC(=O)[C@H](C)NC(=O)[C@H](C)NC(=O)[C@@H](NC(=O)[C@H](CC1CCCCC1)NC(=O)[C@H](CCCCN)NC(=O)[C@@H](C)N)C(C)C)[C@@H](C)O)C(=O)N[C@@H](CCCCN)C(=O)N[C@@H](C)C(=O)N[C@@H](C)C(=O)N[C@H](C)C(N)=O [965.09]	0 cpm
CC(C)C[C@H](NC(=O)[C@@H](NC(=O)[C@H](Cc1c[nH]c2ccccc12)NC(=O)[C@H](C)NC(=O)[C@H](C)NC(=O)[C@@H](NC(=O)[C@H](CC1CCCCC1)NC(=O)[C@H](CCCCN)NC(=O)[C@@H](C)N)C(C)C)[C@@H](C)O)C(=O)N[C@@H](CCCCN)C(=O)N[C@@H](C)C(=O)N[C@@H](C)C(=O)N[C@H](C)C(N)=O [965.10]	29933 cpm
CC(C)C[C@H](NC(=O)[C@@H](NC(=O)[C@H](Cc1c[nH]c2ccccc12)NC(=O)[C@H](C)NC(=O)[C@H](C)NC(=O)[C@@H](NC(=O)[C@H](CC1CCCCC1)NC(=O)[C@H](CCCCN)NC(=O)[C@H](C)N)C(C)C)[C@@H](C)O)C(=O)N[C@@H](CCCCN)C(=O)N[C@@H](C)C(=O)N[C@@H](C)C(=O)N[C@@H](C)C(N)=O [965.17]	4994 cpm
CC(C)C[C@H](NC(=O)[C@@H](NC(=O)[C@H](Cc1c[nH]cn1)NC(=O)[C@H](C)NC(=O)[C@H](C)NC(=O)[C@@H](NC(=O)[C@H](CC1CCCCC1)NC(=O)[C@H](CCCCN)NC(=O)[C@@H](C)N)C(C)C)[C@@H](C)O)C(=O)N[C@@H](CCCCN)C(=O)N[C@@H](C)C(=O)N[C@@H](C)C(=O)N[C@H](C)C(N)=O [965.15]	3100 cpm

Return reported X460 (Δmax cpm) values for all items listed beneath this line.
1. CC(C)C[C@H](NC(=O)[C@@H](NC(=O)[C@H](CCCCN)NC(=O)[C@H](C)NC(=O)[C@H](C)NC(=O)[C@@H](NC(=O)[C@H](CC1CCCCC1)NC(=O)[C@H](CCCCN)NC(=O)[C@@H](C)N)C(C)C)[C@@H](C)O)C(=O)N[C@@H](CCCCN)C(=O)N[C@@H](C)C(=O)N[C@@H](C)C(=O)N[C@H](C)C(N)=O [965.14]
2. CC(C)C[C@H](NC(=O)[C@@H](NC(=O)[C@H](CC(N)=O)NC(=O)[C@H](C)NC(=O)[C@H](C)NC(=O)[C@@H](NC(=O)[C@H](CC1CCCCC1)NC(=O)[C@H](CCCCN)NC(=O)[C@@H](C)N)C(C)C)[C@@H](C)O)C(=O)N[C@@H](CCCCN)C(=O)N[C@@H](C)C(=O)N[C@@H](C)C(=O)N[C@H](C)C(N)=O [965.08]

output:
1: 4365 cpm; 2: 6286 cpm
